Reported IC50 [M], W-20-17/BRE-luc luciferase bioassay, 100 pM hBMP4 and 10 nM hGREM1-His values follow for various binders
- Experimental System: recombinant human GREM1 (hGREM1-His; C-terminal 10His tagged, R&D, #5190-GR) (human) (UniProt O60565)
- Sequence (O60565 other isoform, or with tags, fused parts or gaps limits assumed, form in doubt): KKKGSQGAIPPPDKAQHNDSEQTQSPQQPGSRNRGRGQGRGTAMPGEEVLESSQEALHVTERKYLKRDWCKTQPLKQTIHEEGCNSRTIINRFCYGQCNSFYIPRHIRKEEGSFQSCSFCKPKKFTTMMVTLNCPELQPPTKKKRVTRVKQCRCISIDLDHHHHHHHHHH
- Assay Notes: cell-based or functional assay
The reply should be a number in M, with the unit left off.

Challenge: Requested read-out: IC50 [M], W-20-17/BRE-luc luciferase bioassay, 100 pM hBMP4 and 10 nM hGREM1-His. Entry: H4H2926N (antibody, human IgG4, V domains shown) VH: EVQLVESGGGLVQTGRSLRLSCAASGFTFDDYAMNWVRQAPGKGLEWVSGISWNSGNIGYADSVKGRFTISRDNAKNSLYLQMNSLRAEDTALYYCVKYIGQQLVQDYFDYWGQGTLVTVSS VL: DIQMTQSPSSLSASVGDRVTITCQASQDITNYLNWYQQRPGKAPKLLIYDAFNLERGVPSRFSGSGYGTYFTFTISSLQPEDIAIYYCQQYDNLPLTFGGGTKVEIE
Response given: 1.2e-09

Challenge: Check H4H6240P (antibody, human IgG4, V domains shown) VH: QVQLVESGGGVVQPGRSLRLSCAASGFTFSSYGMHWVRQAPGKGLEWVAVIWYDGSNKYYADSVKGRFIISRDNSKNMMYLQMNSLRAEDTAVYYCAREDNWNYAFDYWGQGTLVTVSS VL: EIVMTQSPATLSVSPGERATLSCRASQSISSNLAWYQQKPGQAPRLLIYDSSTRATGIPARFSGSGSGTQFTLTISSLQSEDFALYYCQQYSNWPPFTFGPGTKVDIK too.
Response given: 8.1e-10

The measurements presented in this section are drawn from patent US20230192831A1.
